- Test system: A549/ATCC NSCLC
- test description: NCI-60 one-dose screen, 48 h (100 = growth as untreated, 0 = no growth, -100 = all killed)
- measurement conditions: 10 µM unless noted
The panel holds about 83,000 compounds, 20% with a hit somewhere; the sample as a whole holds those more often. Active and inactive are the calls of the source. The calls were made as follows: active = growth percent below 10; inactive = the rest.
experimental endpoint: growth

Previously resolved entries follow.
COc1ccc(-n2cc(COc3ccc4c5ccnc(C)c5n(CC(C)C)c4c3)nn2)cc1 | 67.1% (inactive)
COCCOCCOCc1n(Cc2ccc3ccccc3c2)c2ccccc2[n+]1Cc1ccc2ccccc2c1 | 33.1% (inactive)
c1ccc(-c2cn3ccnc3c(-c3ccc4c(c3)ncn4C3CCCCC3)n2)cc1 | 91% (inactive)
CN(C)C(CNc1oc(-c2cccc3ccccc23)nc1C#N)c1ccco1 (stereo not given) | 91.6% (inactive)
O=C(CCCCCCCCC(=O)Nc1cccc(C2=NCCN2)c1)Nc1cccc(C2=NCCN2)c1 | 96.6% (inactive)
N#Cc1ccc(C2C3=C(CCCC3=O)OC3=C2C(=O)c2ccccc2C3=O)cc1 (stereo not given) | 108% (inactive)

QUERY: Which value of growth has been reported for COc1ccc(C(=O)c2cc(OC)c(C)c(OC)c2)cc1OC(=O)CCl in the records?
RESULT: 28.5% (inactive)
